biological target: CCR5 (UniProt P51681); test: cell-based or functional assay
Test readout: anti-HIV potency (IC50, nM) by cell fusion assay
Numbers only, in nM.

Recorded anti-HIV potency (IC50, nM) by cell fusion assay, per entry:
| Binder | Observed value |
| --- | --- |
| RANTES derivative: signature sequence SEQ ID NO: 35 fused to positions 10-68 of native RANTES (SEQ ID NO: 1) (ligand) QGPPGMWSQSCCFAYIARPLPRAHIKEYFYTSGKCSNPAVVFVTRKNRQVCANPEKKWVREYINSLEMS | 0.05 |
| RANTES derivative: signature sequence SEQ ID NO: 51 fused to positions 10-68 of native RANTES (SEQ ID NO: 1) (ligand) QGPPLQWTQVCCFAYIARPLPRAHIKEYFYTSGKCSNPAVVFVTRKNRQVCANPEKKWVREYINSLEMS | 0.02 |

The following binders each have a reported value; give each one's anti-HIV potency (IC50, nM) by cell fusion assay.
1. RANTES derivative: signature sequence SEQ ID NO: 31 fused to positions 10-68 of native RANTES (SEQ ID NO: 1) (ligand) QGPPLSWLQSCCFAYIARPLPRAHIKEYFYTSGKCSNPAVVFVTRKNRQVCANPEKKWVREYINSLEMS
2. RANTES derivative: signature sequence SEQ ID NO: 50 fused to positions 10-68 of native RANTES (SEQ ID NO: 1) (ligand) QGPPLQWFQVCCFAYIARPLPRAHIKEYFYTSGKCSNPAVVFVTRKNRQVCANPEKKWVREYINSLEMS
3. RANTES derivative: signature sequence SEQ ID NO: 12 fused to positions 10-68 of native RANTES (SEQ ID NO: 1) (ligand) QGPPLMWLGGCCFAYIARPLPRAHIKEYFYTSGKCSNPAVVFVTRKNRQVCANPEKKWVREYINSLEMS
4. RANTES derivative: signature sequence SEQ ID NO: 21 fused to positions 10-68 of native RANTES (SEQ ID NO: 1) (ligand) QGPPGDWLQVCCFAYIARPLPRAHIKEYFYTSGKCSNPAVVFVTRKNRQVCANPEKKWVREYINSLEMS
5. RANTES derivative: signature sequence SEQ ID NO: 19 fused to positions 10-68 of native RANTES (SEQ ID NO: 1) (ligand) QGPPGDGGSVCCFAYIARPLPRAHIKEYFYTSGKCSNPAVVFVTRKNRQVCANPEKKWVREYINSLEMS
6. RANTES derivative: signature sequence SEQ ID NO: 28 fused to positions 10-68 of native RANTES (SEQ ID NO: 1) (ligand) QGPPGSWSSVCCFAYIARPLPRAHIKEYFYTSGKCSNPAVVFVTRKNRQVCANPEKKWVREYINSLEMS
7. RANTES derivative: signature sequence SEQ ID NO: 61 fused to positions 10-68 of native RANTES (SEQ ID NO: 1) (ligand) QGPPLQWMQVCCFAYIARPLPRAHIKEYFYTSGKCSNPAVVFVTRKNRQVCANPEKKWVREYINSLEMS
8. RANTES derivative: signature sequence SEQ ID NO: 18 fused to positions 10-68 of native RANTES (SEQ ID NO: 1) (ligand) QGPPGSYDYSCCFAYIARPLPRAHIKEYFYTSGKCSNPAVVFVTRKNRQVCANPEKKWVREYINSLEMS

Solution:
1: 0.02; 2: 0.02; 3: 0.03; 4: 0.54; 5: 0.28; 6: 0.03; 7: 0.02; 8: 0.08
